// data source = ChEMBL document CHEMBL4020791

Tested on: MDA-MB-231
test: cells
stated conditions: Homo sapiens, MDA-MB-231, 72 h
Description: Cytotoxicity against human MDA-MB-231 cells assessed as reduction in cell viability after 72 hrs by MTT assay
Examples of compounds with documented pIC50 follow.
Scale for pIC50: -log10 of concentration given in mol/L; no unit attached.

Worked examples follow.
[[record]]
compound = "O=c1oc2cccn2c2ccc(Br)cc12"
assayed_system = "MDA-MB-231"
value_observed = 3.66

[[record]]
compound = "O=c1oc2cccn2c2ccc(-c3ccc(O)cc3)cc12"
assayed_system = "MDA-MB-231"
value_observed = 4.51

[[record]]
compound = "COc1cccc2c1C(=O)c1c(O)c3c(c(O)c1C2=O)C[C@@](O)(C(=O)CO)C[C@@H]3O[C@H]1C[C@H](N)[C@H](O)[C@H](C)O1 [DOXORUBICIN]"
assayed_system = "MDA-MB-231"
value_observed = 5.00

[[record]]
compound = "O=c1oc2cccn2c2ccc(-c3cccnc3O)cc12"
assayed_system = "MDA-MB-231"
value_observed = 4.10

[[record]]
compound = "O=c1oc2cccn2c2ccc(-c3ccc(C(F)(F)F)nc3)cc12"
assayed_system = "MDA-MB-231"
value_observed = 4.14

[[record]]
compound = "O=c1oc2cccn2c2ccc(-c3ccccc3)cc12"
assayed_system = "MDA-MB-231"
value_observed = 4.03

[[record]]
compound = "O=c1oc2cccn2c2ccc(-c3ccc(-c4ccccc4)cc3)cc12"
assayed_system = "MDA-MB-231"
value_observed = 5.00


Let's switch to this compound now.
Please give the documented pIC50 of COC(=O)c1ccc(-c2ccc3c(c2)c(=O)oc2cccn23)cc1
4.19
